The reported measurements were obtained from patent US20240059769A1.

Biological target: T1, human TSLP (human, UniProt Q969D9 29-159)
T1 construct: also called hTSLP; rhTSLP
Test: SPR
Please provide measured Kd for the entries that follow.
Give bare numbers, in pM.

Worked examples follow.
binder="BDG38.094 (antibody, V domains shown, IgG1) VH: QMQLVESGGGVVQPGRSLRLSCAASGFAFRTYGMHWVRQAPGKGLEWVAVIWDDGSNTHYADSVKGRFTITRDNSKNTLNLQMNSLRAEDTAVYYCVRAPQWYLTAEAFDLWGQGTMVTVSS VL: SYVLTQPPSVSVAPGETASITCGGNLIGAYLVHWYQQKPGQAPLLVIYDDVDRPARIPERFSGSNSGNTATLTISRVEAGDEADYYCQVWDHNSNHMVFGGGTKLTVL" measure_unit=pM recorded_measurement=0.0127
binder="BDG38.096 (antibody, V domains shown, IgG1) VH: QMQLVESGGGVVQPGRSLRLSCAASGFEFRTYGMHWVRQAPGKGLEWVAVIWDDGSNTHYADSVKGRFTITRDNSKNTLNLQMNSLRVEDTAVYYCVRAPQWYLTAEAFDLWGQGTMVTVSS VL: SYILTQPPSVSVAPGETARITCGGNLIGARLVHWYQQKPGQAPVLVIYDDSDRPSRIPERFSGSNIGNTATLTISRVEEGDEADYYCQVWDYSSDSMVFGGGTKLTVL" measure_unit=pM recorded_measurement=21
binder="BDG38.107 (antibody, V domains shown, IgG1) VH: QMQLVESGGGVVQPGRSLTLSCAASGFEFRTYGMHWVRQAPGKGLEWVGVIWYDGSNTHYADSVKGRFTITRDNSKNTLNLQMNSLRAEDTAVYYCVRAPQWYLTAEAFDLWGQGTMVTVSS VL: SYILTQPPSVSVAPGQTATITCGGNLIGARLVHWYQQKPGQAPVLVIYDDSDRPSRIPERFSGSNIGNTATLTIERVEEGDEADYYCQVWDYSSDSYVFGGGTKLTVL" measure_unit=pM recorded_measurement=151

Each of the following entries comes with a recorded value; kindly state Kd for each.
1. BDG38.116 (antibody, V domains shown, IgG1) VH: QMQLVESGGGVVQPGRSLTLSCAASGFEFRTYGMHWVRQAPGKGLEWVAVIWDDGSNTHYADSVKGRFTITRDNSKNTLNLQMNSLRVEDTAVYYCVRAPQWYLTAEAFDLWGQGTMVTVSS VL: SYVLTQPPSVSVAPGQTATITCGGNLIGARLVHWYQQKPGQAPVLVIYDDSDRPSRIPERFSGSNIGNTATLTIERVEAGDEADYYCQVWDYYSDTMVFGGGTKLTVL
2. BDG38.076 (antibody, V domains shown, IgG1) VH: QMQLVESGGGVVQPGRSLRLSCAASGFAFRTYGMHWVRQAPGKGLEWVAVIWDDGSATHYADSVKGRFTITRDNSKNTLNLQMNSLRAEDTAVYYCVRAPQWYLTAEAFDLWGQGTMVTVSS VL: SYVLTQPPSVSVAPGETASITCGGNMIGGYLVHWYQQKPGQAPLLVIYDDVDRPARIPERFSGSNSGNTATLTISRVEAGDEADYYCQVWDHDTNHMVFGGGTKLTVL

Result block:
1: 7.27; 2: 1.61
